All values here come from patent US11413255B2.

- System: raloxifene-exposed hepatocytes
- assay_procedure: Raloxifene-induced hepatocyte toxicity
- condition_info: at 150 μM
attribute_measured: protection against raloxifene

CC(=O)C1CCCC1=O (stereo not shown) [2-ACP, 2-acetylcyclopentanone] : partial protection
CC(=O)c1cc(O)c(C(C)=O)c(O)c1 [4-NAHA, 4-acetyl-2,6-dihydroxy acetophenone] : fully protective
CC(=O)c1c(O)cc(O)cc1O [THA, 2′,4′,6′-trihydroxyacetophenone] : fully protective
CC(=O)N[C@@H](CS)C(=O)O [NAC, N-acetyl cysteine] : partial protection

###

- assay_procedure: physchem
Kindly supply the reported pKa values for the records listed here.

CC(=O)c1c(O)cc(O)cc1O [THA, 2′,4′,6′-trihydroxyacetophenone] : 7.75

Attention now shifts to the item below.
Notebook: Oc1cc(O)cc(O)c1 [PG, 1,3,5-trihydroxybenzene] , pKa read as 8.45

###

- assay_procedure: Computational data on THA analogues: pKa and % anion
- Assay type: physicochemical
- condition_info: values without * (not estimates)
attribute_measured: pKa
Answers are plain numbers.

Notebook: Oc1cc(O)cc(O)c1 [drawing 24] , pKa read as 8.5

###

- assay_procedure: pKa and % anion at physiological pH
attribute_measured: pKa
Answers are plain numbers.

Notebook: CC(=O)c1c(O)cc(O)cc1O [THA, 2′,4′,6′-trihydroxyacetophenone] , pKa read as 7.7

###

- assay_procedure: pKa and % anion at physiological pH
- condition_info: pH 7.4
Rule: MET for % Anion (pH 7.4) not less than 30%, NOT MET for anything less.

Field: example entries. Status: answers known.
CC(=O)C1CCCC1=O (centres unmarked) : NOT MET
CC(=O)N[C@@H](CS)C(=O)O : NOT MET
O=C(CCc1ccc(O)cc1)c1c(O)cc(O)cc1O : MET

Q: Determine whether this compound has % Anion (pH 7.4) no lower than 30%: CC(=O)c1c(O)cc(O)cc1O [THA, 2′,4′,6′-trihydroxyacetophenone]
Result: MET

Q: Determine whether this compound has % Anion (pH 7.4) no lower than 30%: Oc1cc(O)cc(O)c1 [PG, 1,3,5-trihydroxybenzene]
Result: NOT MET
